TGI values by entry
system: UACC-257 melanoma; experiment: NCI tumour cell line growth inhibition, 48 h
Where a SMILES comes first, the peptide text is derived from it. [ ]: non-standard residue; d: D form. ξ: configuration not given here. Pentanoyl(2-O,4-OH,5-Cl) = O=C(O)C(O)CC(O)CCl; Ile(3ξ) = CCC(C)[C@H](N)C(=O)O; NMeV = CN[C@H](C(=O)O)C(C)C; NMeA = CN[C@@H](C)C(=O)O; βAla = NCCC(=O)O

compound	TGI
CCOC(=O)N1CCC2(CC1)C[C@](Sc1ccccc1)(C(C)=O)[C@H](C)O2	> 100 µM
Cc1ccccc1NC(=O)C(=O)C(C1OC(=O)c2ccccc21)[N+](=O)[O-] (centres undefined)	> 100 µM
CCC(C)[C@@H]1NC(=O)[C@@H]2CCCN2C(=O)C(CC(O)CCl)OC(=O)CCNC(=O)[C@H](C)N(C)C(=O)[C@H](C(C)C)N(C)C1=O (some centres undefined) (cyclo([Ile(3ξ)][NMeV][NMeA][βAla][Pentanoyl(2-O,4-OH,5-Cl)]P))	> 86 µM
CN1CCN(CCCOC(=O)c2c3c(n4ccccc24)C(=O)c2ncccc2C3=O)CC1	1.3 µM
O=S(=O)(O)c1cc(O)c(N=NC2S(=O)(=O)OCCOS2(=O)=O)c2ccccc12	> 100 µM
O=C1C2C3SC(c4cc5ccccc5cc43)C2C(=O)N1c1ccccc1 (centres undefined)	> 100 µM
CN(C)C(=C1C(Br)=C(Br)C(Br)=C1Br)N(C)C	> 100 µM
Nc1nc(N)c2cc(-c3cc4ccccc4[nH]3)ccc2n1	35.1 µM
CCOC(=O)CCCN	> 100 µM
